Cited source for all entries: ChEMBL document CHEMBL4251655

Recorded inhibition for the following compounds
- ASSAYED_SYSTEM: Interleukin-1 receptor-associated kinase 4 (Homo sapiens) (UniProt Q9NWZ3)
- Sequence (Q9NWZ3 whole entry): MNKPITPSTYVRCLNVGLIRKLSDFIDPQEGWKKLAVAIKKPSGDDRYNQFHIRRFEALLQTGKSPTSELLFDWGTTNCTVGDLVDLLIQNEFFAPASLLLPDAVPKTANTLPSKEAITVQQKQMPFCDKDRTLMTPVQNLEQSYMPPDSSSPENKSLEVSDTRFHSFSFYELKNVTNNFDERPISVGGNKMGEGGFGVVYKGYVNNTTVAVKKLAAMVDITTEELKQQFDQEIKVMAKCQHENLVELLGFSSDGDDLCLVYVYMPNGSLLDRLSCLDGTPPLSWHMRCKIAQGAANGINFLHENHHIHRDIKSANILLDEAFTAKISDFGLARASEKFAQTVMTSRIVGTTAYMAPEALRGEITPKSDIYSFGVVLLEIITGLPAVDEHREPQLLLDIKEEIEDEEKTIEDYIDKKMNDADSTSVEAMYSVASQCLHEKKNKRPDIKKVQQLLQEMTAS
- PROCEDURE_SUMMARY: Inhibition of recombinant full length human His-tagged IRAK4 expressed in baculovirus expression system at 1 uM relative to control
Give your result in % as a bare value.

Here is how some compounds turned out for inhibition.
chem_smiles=COc1ccc(C(N)=O)cc1C(=O)Nc1cccc(-c2nncn2C(C)C)n1 units=% value_reported=-1
chem_smiles=COc1cc(C)c(C(N)=O)cc1C(=O)Nc1cccc(-c2nncn2C(C)C)n1 units=% value_reported=-2
chem_smiles=COc1ccc(S(N)(=O)=O)cc1C(=O)Nc1cccc(-c2nncn2C(C)C)n1 units=% value_reported=-9

query: Can you share its inhibition? I mean this compound: COc1ccc(S(C)(=O)=O)cc1C(=O)Nc1cccc(-c2nncn2C(C)C)n1
result: 3

query: Can you share its inhibition? I mean this compound: COc1cc(C)c(S(N)(=O)=O)cc1C(=O)Nc1cccc(-c2nncn2C(C)C)n1
result: 2

query: Can you share its inhibition? I mean this compound: COc1cc(C)c(S(C)(=O)=O)cc1C(=O)Nc1cccc(-c2nncn2C(C)C)n1
result: 4

----------
Recorded inhibition for the following compounds
- ASSAYED_SYSTEM: Angiopoietin-1 receptor (Homo sapiens) (UniProt Q02763)
- Sequence (Q02763 whole entry, the tested form may be a part): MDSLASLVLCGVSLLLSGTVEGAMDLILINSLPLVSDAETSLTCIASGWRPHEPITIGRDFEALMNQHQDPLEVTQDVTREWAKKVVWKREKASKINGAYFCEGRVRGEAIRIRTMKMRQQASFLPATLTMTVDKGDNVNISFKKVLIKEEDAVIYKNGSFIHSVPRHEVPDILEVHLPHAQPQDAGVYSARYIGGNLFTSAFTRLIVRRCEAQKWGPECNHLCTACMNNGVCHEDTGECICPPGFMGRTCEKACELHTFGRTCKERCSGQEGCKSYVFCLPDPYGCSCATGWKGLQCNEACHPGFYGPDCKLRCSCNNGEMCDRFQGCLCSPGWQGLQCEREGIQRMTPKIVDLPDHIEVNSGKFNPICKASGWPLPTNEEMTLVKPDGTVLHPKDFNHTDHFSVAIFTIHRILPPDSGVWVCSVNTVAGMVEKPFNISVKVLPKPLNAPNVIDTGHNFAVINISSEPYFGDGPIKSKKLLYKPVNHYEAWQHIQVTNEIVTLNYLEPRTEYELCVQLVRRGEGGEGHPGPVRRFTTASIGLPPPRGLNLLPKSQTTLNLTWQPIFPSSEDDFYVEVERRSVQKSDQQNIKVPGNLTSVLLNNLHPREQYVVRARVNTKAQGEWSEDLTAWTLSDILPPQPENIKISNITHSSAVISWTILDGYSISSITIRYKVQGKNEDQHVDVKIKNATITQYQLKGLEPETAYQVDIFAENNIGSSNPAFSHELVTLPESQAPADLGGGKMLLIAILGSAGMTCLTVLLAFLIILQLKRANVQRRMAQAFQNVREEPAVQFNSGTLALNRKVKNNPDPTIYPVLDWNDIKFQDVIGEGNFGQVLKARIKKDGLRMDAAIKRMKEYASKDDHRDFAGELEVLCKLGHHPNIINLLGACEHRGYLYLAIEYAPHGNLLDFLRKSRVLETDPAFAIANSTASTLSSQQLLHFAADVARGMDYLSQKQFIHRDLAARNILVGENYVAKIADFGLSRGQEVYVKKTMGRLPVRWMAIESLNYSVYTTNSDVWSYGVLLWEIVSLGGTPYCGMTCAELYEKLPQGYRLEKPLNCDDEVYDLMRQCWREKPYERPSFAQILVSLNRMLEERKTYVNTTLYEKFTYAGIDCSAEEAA
- PROCEDURE_SUMMARY: Inhibition of recombinant human GST-tagged TEK (817 to 1101 residues) expressed in baculovirus expression system at 1 uM relative to control
Give your result in % as a bare value.

Here is how some compounds turned out for inhibition.
chem_smiles=COc1ccc(S(N)(=O)=O)cc1C(=O)Nc1cccc(-c2nncn2C(C)C)n1 value_reported=2
chem_smiles=COc1cc(C)c(S(C)(=O)=O)cc1C(=O)Nc1cccc(-c2nncn2C(C)C)n1 value_reported=-3
chem_smiles=COc1ccc(S(C)(=O)=O)cc1C(=O)Nc1cccc(-c2nncn2C(C)C)n1 value_reported=8
chem_smiles=COc1cc(C)c(S(N)(=O)=O)cc1C(=O)Nc1cccc(-c2nncn2C(C)C)n1 value_reported=2
chem_smiles=COc1cc(C)c(C(N)=O)cc1C(=O)Nc1cccc(-c2nncn2C(C)C)n1 value_reported=-1

Consider now this further compound.
query: Checklist item: inhibition tested on Angiopoietin-1 receptor (Homo sapiens) (UniProt Q02763), entry COc1ccc(C(N)=O)cc1C(=O)Nc1cccc(-c2nncn2C(C)C)n1 , value?
result: 1

----------
- PROCEDURE_SUMMARY: Permeability of the compound in RRCK cells
- Format: ADME, cell-based, Canis lupus familiaris, MDCKII-LE
- CONDITION_DESCRIPTION: dog, MDCK; read-out: permeability
Recorded Papp for the following molecules
Give your result in nm/s as a bare value.

query: Can you share its Papp? I mean this molecule: CCS(=O)(=O)Nc1ccc(OC)c(C(=O)Nc2cccc(-c3nncn3C(C)C)n2)c1
result: 56

----------
- ASSAYED_SYSTEM: Serine/threonine-protein kinase Sgk1 (Homo sapiens) (UniProt O00141)
- Sequence (O00141 whole entry): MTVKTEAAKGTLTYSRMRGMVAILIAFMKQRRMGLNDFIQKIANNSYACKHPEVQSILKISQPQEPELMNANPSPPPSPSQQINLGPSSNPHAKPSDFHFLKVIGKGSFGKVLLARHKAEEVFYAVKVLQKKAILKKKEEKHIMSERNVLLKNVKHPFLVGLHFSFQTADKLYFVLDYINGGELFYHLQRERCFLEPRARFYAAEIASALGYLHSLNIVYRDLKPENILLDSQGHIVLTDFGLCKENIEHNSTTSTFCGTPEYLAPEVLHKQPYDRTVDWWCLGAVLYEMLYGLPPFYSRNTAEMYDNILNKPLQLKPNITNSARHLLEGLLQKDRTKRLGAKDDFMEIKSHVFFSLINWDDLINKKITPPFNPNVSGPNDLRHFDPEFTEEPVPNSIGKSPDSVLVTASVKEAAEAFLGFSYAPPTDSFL
- PROCEDURE_SUMMARY: Inhibition of recombinant human GST-tagged SGK1 expressed in baculovirus expression system at 1 uM relative to control
ENDPOINT: inhibition (%)
Give your result in % as a bare value.

Here is how some molecules turned out for inhibition.
chem_smiles=COc1ccc(S(C)(=O)=O)cc1C(=O)Nc1cccc(-c2nncn2C(C)C)n1 assayed_system="Serine/threonine-protein kinase Sgk1 (Homo sapiens) (UniProt O00141)" endpoint=inhibition value_reported=2
chem_smiles=COc1cc(C)c(S(C)(=O)=O)cc1C(=O)Nc1cccc(-c2nncn2C(C)C)n1 assayed_system="Serine/threonine-protein kinase Sgk1 (Homo sapiens) (UniProt O00141)" endpoint=inhibition value_reported=1
chem_smiles=COc1cc(C)c(S(N)(=O)=O)cc1C(=O)Nc1cccc(-c2nncn2C(C)C)n1 assayed_system="Serine/threonine-protein kinase Sgk1 (Homo sapiens) (UniProt O00141)" endpoint=inhibition value_reported=1
chem_smiles=COc1ccc(C(N)=O)cc1C(=O)Nc1cccc(-c2nncn2C(C)C)n1 assayed_system="Serine/threonine-protein kinase Sgk1 (Homo sapiens) (UniProt O00141)" endpoint=inhibition value_reported=-9

Consider now this further molecule.
query: Can you share its inhibition? I mean this molecule: COc1cc(C)c(C(N)=O)cc1C(=O)Nc1cccc(-c2nncn2C(C)C)n1
result: -2
